Data origin: the supplement of paper PMC12764529

Assay: folding stability dG unfold (combined trypsin and chymotrypsin); higher = more stable
Cut-off 1 kcal/mol on folding stability dG unfold, inclusive. At or above means Criterion met; below means Criterion not met.

[
  {
    "primary sequence": "SAGGSAGGQKIKIDDVQKNPGNGNYYVRIRPPGKPYEYQFPPGDSADDIADELELNGIDDIEVYSAGGSAGG [r6_83_TrROS]",
    "class assignment": "Criterion not met"
  },
  {
    "primary sequence": "SAGGMKFELVARFDSKEAAEKAVEELVRELFPDFDVEVEVEVIEDPETGTFLAIATITLPLPGPEDLSAGGS [r8_17_TrMRF]",
    "class assignment": "Criterion met"
  },
  {
    "primary sequence": "SAGGWMPIEDLKDIPENMPPGYKITIRNPGNGQEGTFEYNKDGGIKIEDPGKPVEIPPGAYIDEIEPSAGGS [r8_162_TrROS]",
    "class assignment": "Criterion not met"
  },
  {
    "primary sequence": "SAGGSAGGSAMTLEEKALESEELKKKIEEAPPSTKLITFELPGGEKITFTKNPDGSVVLSPSAGGSAGGSAG [r3_124_JUSTAS]",
    "class assignment": "Criterion met"
  },
  {
    "primary sequence": "SPNMQPVEMEFKIKVPGKPVDIKIEMWRMPDGQTRMDIRYPDGRSIMFNPSNGSIKIYDPKDGKPLAEISSA [r9_970_TrROS]",
    "class assignment": "Criterion met"
  },
  {
    "primary sequence": "SKIRIIRPERSLEIDLPKSARIEFDPETRRIYFINPDGERLEFPLGPNAVIIPGDDEITIIDPPASPENPSA [r9_653_TrMRF]",
    "class assignment": "Criterion met"
  },
  {
    "primary sequence": "SAGGKPNWVWFKITINVTPEQLENMTLDEIADRVIDELMKLGFPIKKIEIDEIQWDGDRVTIYIRIRVSAGG [r13_432_TrROS]",
    "class assignment": "Criterion met"
  }
]

* * *

Consider the following sequences and their measured folding stability dG unfold readings.
Assay: folding stability dG unfold from chymotrypsin proteolysis; higher = more stable

[
  {
    "primary sequence": "SAGGKKFYVEVKINLKDKTIYLIKEVKPGNLEKLIKEIEKKGIKEAGIDEIKIFPKDGYIEIKGGEKSAGGS [r8_219_TrMRF]",
    "folding stability dG unfold (kcal/mol)": 1.18
  },
  {
    "primary sequence": "SAGGNLMIRVELYRPKPDPEGEWQKREVTLPMPPGEPIEELIDELRPPGWVIEIDIFDNGKPIREYYIRSAG [r5_278_TrROS]",
    "folding stability dG unfold (kcal/mol)": 2.86
  },
  {
    "primary sequence": "SAGGSAGGSWIWVIKIENPEKGREYTFFIPGPLEDIKDHIREWNPDPDVKVEIQRIPVSPEAFSAGGSAGGS [r12_92_TrROS]",
    "folding stability dG unfold (kcal/mol)": 2.11
  },
  {
    "primary sequence": "STITIEVETPEELEKALVEAEKLVEKGKDVKIEIFVRNENGETLKLTFDIKQLPDGIPVLEIEVEPVPPPSA [r9_1023_TrMRF]",
    "folding stability dG unfold (kcal/mol)": 3.1
  }
]

* * *

Assay: folding stability dG unfold from trypsin proteolysis; higher = more stable
Given measured folding stability dG unfold, output satisfied if it is greater than or equal to 1 kcal/mol and not satisfied if not.

[
  {
    "primary sequence": "SAGGSAMNPKLEALPEVEITEEKTEEYKTAENKKLLVKEYKSNAEPGKTYKVIYDPETGKVLSVEESAGGSA [r15_66_JUSTAS]",
    "class assignment": "not satisfied"
  },
  {
    "primary sequence": "SAGGSAGGSAGKKVLVLSEDEIAELLGLSKEEIENMSEEEKEKLALELAKKLGIDEVIITSAGGSAGGSAGG [r11_80_TrROS_Hall]",
    "class assignment": "satisfied"
  },
  {
    "primary sequence": "SAGGSAGGSAGGMTIEINGKKYEIVEVKEEKGKLTLKIKVNGKLLEIEIDKDKNEIKIYPSAGGSAGGSAGG [r7_553_TrROS_Hall]",
    "class assignment": "satisfied"
  },
  {
    "primary sequence": "SAGGSAGGSAGGSSVKLTLPDGSQVTVDIHPDGTATVTTFPGDTPSVTNMPVSAFQAALPSAGGSAGGSAGG [r7_178_JUSTAS]",
    "class assignment": "satisfied"
  },
  {
    "primary sequence": "SAGGSAGGSSDTRTIPIPIDGYPVRISIDMNGSQTIEFPNPENKDDLKDLIPPGYNITEIEPWSAGGSAGGS [r12_9_TrROS]",
    "class assignment": "not satisfied"
  },
  {
    "primary sequence": "SAGGSAGGSATIWIPVSQIEEFLKQMPPDRIKEVKITYDPEDGWIPVKIPGGREIMIWVPKSAGGSAGGSAG [r3_291_TrROS]",
    "class assignment": "satisfied"
  }
]
